Cited source: patent US20150104459A1

- target under test: recombinant soluble homotrimeric HA of A/Solomon Islands/3/06 (H1N1) (Influenza A virus A/Solomon Islands/3/2006 (H1N1))
- procedure summary: HA microarray, BCC supernatant
- settings: remark: other sources report otherwise
recorded metric: Trimeric HA Binding RLU
In your response, the unit should come after the numeric value.

{"binder": "TCN-532 (5262_H18) (antibody, V domains shown) VH: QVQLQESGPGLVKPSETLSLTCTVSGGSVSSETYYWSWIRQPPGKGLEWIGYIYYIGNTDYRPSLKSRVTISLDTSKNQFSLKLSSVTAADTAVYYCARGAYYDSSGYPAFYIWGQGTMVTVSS VL: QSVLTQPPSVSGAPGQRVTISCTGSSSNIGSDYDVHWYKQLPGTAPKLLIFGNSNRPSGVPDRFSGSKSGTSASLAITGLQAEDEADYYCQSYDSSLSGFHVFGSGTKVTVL", "Trimeric HA Binding RLU": "327 RLU"}
{"binder": "TCN-543 (5081_G23) (antibody, V domains shown) VH: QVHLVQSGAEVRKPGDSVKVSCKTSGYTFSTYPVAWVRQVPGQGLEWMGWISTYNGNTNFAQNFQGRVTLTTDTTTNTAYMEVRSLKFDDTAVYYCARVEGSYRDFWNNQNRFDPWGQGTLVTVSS VL: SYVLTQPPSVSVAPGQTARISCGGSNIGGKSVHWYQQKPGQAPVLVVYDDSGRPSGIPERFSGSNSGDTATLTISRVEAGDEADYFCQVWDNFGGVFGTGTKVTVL", "Trimeric HA Binding RLU": "511 RLU"}

// query Would you mind telling me what Trimeric HA Binding RLU value was observed for TCN-540 (5060_F05) (antibody, V domains shown) VH: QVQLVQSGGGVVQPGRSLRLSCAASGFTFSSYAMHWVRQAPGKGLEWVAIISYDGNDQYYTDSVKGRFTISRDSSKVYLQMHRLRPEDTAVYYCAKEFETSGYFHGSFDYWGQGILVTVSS VL: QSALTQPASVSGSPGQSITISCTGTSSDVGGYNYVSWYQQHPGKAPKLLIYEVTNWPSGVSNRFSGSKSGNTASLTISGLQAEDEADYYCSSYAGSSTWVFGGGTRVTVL ?
// result 64 RLU
